# Method Summary: Non-compartmental pharmacokinetics in mice after i.v. and oral dosing
# Type: in vivo
# Condition Context: mouse, plasma, po, 8 mg/kg, oral 8 mg/kg

# Molecule, Cmax (µg/mL)
records = [
    ("O=C(NC12CC3CC(CC(C3)C1)C2)c1nn(CCCn2ccnn2)c2ccccc12 [AM9338]", 0.24),
]

====

# Method Summary: Non-compartmental pharmacokinetics in mice after i.v. and oral dosing
# Format: in vivo
# Condition Context: mouse, iv, I.V. 2 mg/kg, plasma

# Compound, AUC
measured = [
    ("O=C(NC12CC3CC(CC(C3)C1)C2)c1nn(CCCn2ccnn2)c2ccccc12 [AM9338]", "438 ng·h/mL"),
]

====

# Experimental Target: UniProtKB P47936
# Sequence (P47936 whole entry): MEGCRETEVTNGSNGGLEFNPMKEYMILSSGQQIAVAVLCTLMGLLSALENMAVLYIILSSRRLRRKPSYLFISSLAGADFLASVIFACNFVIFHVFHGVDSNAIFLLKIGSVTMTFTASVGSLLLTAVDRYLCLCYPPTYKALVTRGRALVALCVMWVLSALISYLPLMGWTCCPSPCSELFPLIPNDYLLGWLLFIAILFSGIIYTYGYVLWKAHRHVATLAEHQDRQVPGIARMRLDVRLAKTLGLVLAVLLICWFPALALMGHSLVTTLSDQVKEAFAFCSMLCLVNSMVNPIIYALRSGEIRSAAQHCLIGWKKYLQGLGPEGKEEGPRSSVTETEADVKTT

# Compound, Ki (nM)
rows = [
    ("O=C(NC12CC3CC(CC(C3)C1)C2)c1nn(CCCn2ccnn2)c2ccccc12 [AM9338]", 2.3),
]

====

# Method Summary: Microsomal stability, rat liver microsomes
# Format: in vitro ADME
# Condition Context: pH 7.4; rat liver microsomes; read-out: CLint (ml/min/kg) (Mean ± S.D.)
# CLint scaled listing for each entry below
Endpoint Label: CLint scaled (mL/min/kg)

# Compound, Endpoint Label, Unit Descriptor, Test Result
measured = [
    ("O=C(NC12CC3CC(C1)C(O)C(C2)C3O)c1nn(CCCn2ccnn2)c2ccccc12 (centres unmarked)", "CLint scaled", "mL/min/kg", 93),
    ("O=C(NC12CC3CC(C1)C(O)C(C3)C2)c1nn(CCCn2ccnn2)c2ccccc12 (centres unmarked)", "CLint scaled", "mL/min/kg", 565),
]

====

# Method Summary: Non-compartmental pharmacokinetics in mice after i.v. and oral dosing
# Assay type: in vivo
# Condition Context: mouse, iv, I.V. 2 mg/kg, plasma
# Method: The non-compartmental pharmacokinetic parameters following intravenous (2 mg/kg, i.v.) and oral (8 mg/kg, p.o.) dosing are presented in Table 2 .
Endpoint Label: C0 (ng/mL)

# Structure Smiles, Endpoint Label, Test Result
data = [
    ("O=C(NC12CC3CC(CC(C3)C1)C2)c1nn(CCCn2ccnn2)c2ccccc12", "C0", 2110),
]

====

# Method Summary: Non-compartmental pharmacokinetics in mice after i.v. and oral dosing
# Assay type: in vivo
# Condition Context: mouse, plasma, po, 8 mg/kg, oral 8 mg/kg
Endpoint Label: half-life (h)

# Structure Smiles, Test Result
measured = [
    ("O=C(NC12CC3CC(CC(C3)C1)C2)c1nn(CCCn2ccnn2)c2ccccc12", 1.88),
]

====

# Method Summary: Non-compartmental pharmacokinetics in mice after i.v. and oral dosing
# Format: in vivo
# Condition Context: mouse, plasma, oral 8 mg/kg
Endpoint Label: Tmax

# Compound, Test Result
data = [
    ("O=C(NC12CC3CC(CC(C3)C1)C2)c1nn(CCCn2ccnn2)c2ccccc12 [AM9338]", "1 h"),
]

====

# Method Summary: Non-compartmental pharmacokinetics in mice after i.v. and oral dosing
# Assay type: in vivo
# Condition Context: mouse, plasma, iv, 2 mg/kg, I.V. 2 mg/kg, terminal half-life

# Structure Smiles, Unit Descriptor, half-life
rows = [
    ("O=C(NC12CC3CC(CC(C3)C1)C2)c1nn(CCCn2ccnn2)c2ccccc12", "min", 16),
]

====

# Method Summary: Microsomal stability, human liver microsomes
# Type: in vitro ADME
# Set-up: dose or concentration left out as unconfirmed
# Condition Context: human, liver microsomes, pH 7.4, human liver microsomes, 37°C, presence of NADPH; read-out: t1/2 (min) (Mean ± S.D.)

# Compound, Value Relation Sign, half-life (min)
rows = [
    ("O=C(NC12CC3CC(CC(C3)C1)C2)c1nn(CCCn2ccnn2)c2ccccc12 [AM9338]", "<", 4),
    ("O=C(NC12CC3CC(C1)C(O)C(C3)C2)c1nn(CCCn2ccnn2)c2ccccc12 (stereo not drawn) [M1]", "=", 13.1),
    ("O=C(NC12CC3CC(C1)C(O)C(C2)C3O)c1nn(CCCn2ccnn2)c2ccccc12 (stereo not drawn) [M2]", "=", 30.8),
]

====

# Method Summary: Non-compartmental pharmacokinetics in mice after i.v. and oral dosing
# Format: in vivo
# Condition Context: mouse, iv, I.V. 2 mg/kg, plasma
Endpoint Label: clearance (mL/min/kg)

# Structure Smiles, Test Result
measured = [
    ("O=C(NC12CC3CC(CC(C3)C1)C2)c1nn(CCCn2ccnn2)c2ccccc12", 75.9),
]

====

# Experimental Target: hCB2 (Homo sapiens, UniProt P34972)
# Sequence (P34972 whole entry): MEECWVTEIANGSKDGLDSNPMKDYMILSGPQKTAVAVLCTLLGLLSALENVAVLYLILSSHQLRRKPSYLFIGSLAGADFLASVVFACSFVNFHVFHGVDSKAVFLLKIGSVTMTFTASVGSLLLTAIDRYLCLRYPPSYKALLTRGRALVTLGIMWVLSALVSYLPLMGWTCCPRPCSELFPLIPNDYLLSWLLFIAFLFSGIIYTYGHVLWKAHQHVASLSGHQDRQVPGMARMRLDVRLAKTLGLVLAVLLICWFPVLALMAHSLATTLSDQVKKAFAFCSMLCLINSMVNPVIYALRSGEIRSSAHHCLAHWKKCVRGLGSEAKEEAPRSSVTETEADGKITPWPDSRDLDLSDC

# Structure Smiles, Ki (nM)
rows = [
    ("O=C(NC12CC3CC(CC(C3)C1)C2)c1nn(CCCn2ccnn2)c2ccccc12", 3),
]

====

# Method Summary: Non-compartmental pharmacokinetics in mice after i.v. and oral dosing
# Type: in vivo
# Condition Context: mouse, oral 8 mg/kg, plasma

# Structure Smiles, AUC / ng·h/mL
rows = [
    ("O=C(NC12CC3CC(CC(C3)C1)C2)c1nn(CCCn2ccnn2)c2ccccc12", 267),
]

====

# half-life listing for each entry below
# Method Summary: Microsomal stability, rat liver microsomes
# Type: in vitro ADME
# Parameters: dose or concentration left out as unconfirmed
# Condition Context: rat, liver microsomes, pH 7.4, rat liver microsomes, 37°C, presence of NADPH; read-out: t1/2 (min) (Mean ± S.D.)

# Compound, half-life / min
records = [
    ("O=C(NC12CC3CC(C1)C(O)C(C2)C3O)c1nn(CCCn2ccnn2)c2ccccc12 (centres unmarked)", 26.8),
    ("O=C(NC12CC3CC(C1)C(O)C(C3)C2)c1nn(CCCn2ccnn2)c2ccccc12 (centres unmarked)", 4.41),
]
